Recorded values, source the supplement of paper PMC11451515.

System: P12-Ichikawa
Assay: cell viability relative to DMSO control; higher = less cytotoxic
Details: RPMI 5 mM glucose + 10% FBS; 48 h; 5.12 µM
MEASURED QUANTITY: cell viability (%)
API: value field is a number in %; no unit string.

- MOLECULE: "O=C(Oc1ccc([N+](=O)[O-])cc1)N1CCN(Cc2cccc(Oc3ccccc3)c2)CC1"
  TARGET OF ASSAY: "P12-Ichikawa"
  UNIT DESCRIPTOR: "%"
  cell viability: 102
- MOLECULE: "NC\\1=N\\C(=O)N(\\C=N1)[C@H]2C[C@H](O)[C@@H](CO)O2"
  TARGET OF ASSAY: "P12-Ichikawa"
  UNIT DESCRIPTOR: "%"
  cell viability: 37.6
- MOLECULE: "Nc1ccc([S+](=O)([O-])Nc2ccccn2)cc1"
  TARGET OF ASSAY: "P12-Ichikawa"
  UNIT DESCRIPTOR: "%"
  cell viability: 127

INPUT: Return cell viability measured with P12-Ichikawa given this molecule: `COc1ccc(Cn2ccc3ccc(C(=O)NO)cc32)cc1`
OUTPUT: 120

INPUT: Return cell viability measured with P12-Ichikawa given this molecule: `COC(=O)N[C@H](C(=O)N[C@@H](Cc1ccccc1)[C@@H](O)CN(Cc1ccc(-c2ccccn2)cc1)NC(=O)[C@@H](NC(=O)OC)C(C)(C)C)C(C)(C)C`
OUTPUT: 122

INPUT: Return cell viability measured with P12-Ichikawa given this molecule: COc1ccc2cc(-c3[nH]c(-c4ccc([S+](C)[O-])cc4)nc3-c3ccncc3)ccc2c1 (configuration not stated)
OUTPUT: 142

INPUT: Return cell viability measured with P12-Ichikawa given this molecule: `Cn1cc(-c2ccncc2)c(-c2ccc(OCc3ccc4ccccc4n3)cc2)n1`
OUTPUT: 104

###

System: SEM cells
Experiment: cell viability relative to DMSO control; higher = less cytotoxic
Conditions: RPMI 5 mM glucose + 10% dialyzed FBS; 48 h; 5.12 µM
# cell viability annotations
API: value field is a number in %; no unit string.

See these solved cases before continuing.
- COMPOUND: "CCOc1ccccc1OCCNC(C)Cc1ccc(OC)c([S+](N)(=O)[O-])c1 (stereo not given)"
  UNIT DESCRIPTOR: "%"
  cell viability: 108
- COMPOUND: "CCCCOc1ccc(C(=O)Nc2ccc(F)cc2F)cc1"
  UNIT DESCRIPTOR: "%"
  cell viability: 88
- COMPOUND: "CCCn1c(=O)c2[nH]c(C34CC5CC3C[C@@H](C5)C4)nc2n(CCC)c1=O"
  UNIT DESCRIPTOR: "%"
  cell viability: 101

INPUT: Given `COc1cc2c(NC3CCN(C(C)C)CC3)nc(C3CCCCC3)nc2cc1OCCCN1CCCC1` , state its recorded cell viability.
OUTPUT: 115

INPUT: Given C[C@H]1CCC/C=C/C2C[C@H](O)C[C@H]2[C@H](O)/C=C/C(=O)O1 (stereo not given in full) , state its recorded cell viability.
OUTPUT: 2

###

System: P12-Ichikawa
Assay: cell viability relative to DMSO control; higher = less cytotoxic
Conditions: RPMI 5 mM glucose + 10% FBS; 48 h; 1.71 µM
MEASURED QUANTITY: cell viability (%)
API: value field is a number in %; no unit string.

See these solved cases before continuing.
- COMPOUND: "Cc1cc(SCc2sc(-c3ccc(C(F)(F)F)c(F)c3)nc2C)ccc1OCC(=O)O"
  TARGET OF ASSAY: "P12-Ichikawa"
  cell viability, %: 93.4
- COMPOUND: "Nc1ccc([S+](=O)([O-])Nc2ccccn2)cc1"
  TARGET OF ASSAY: "P12-Ichikawa"
  cell viability, %: 116
- COMPOUND: "Cn1c(=O)c2c(ncn2CC(O)CO)n(C)c1=O (centres undefined)"
  TARGET OF ASSAY: "P12-Ichikawa"
  cell viability, %: 117
- COMPOUND: "Cc1ccccc1C(C(=O)NC1CCCCC1)N(C(=O)CNc1ccc(C#N)cc1)c1cccc(F)c1 (centres undefined)"
  TARGET OF ASSAY: "P12-Ichikawa"
  cell viability, %: 102
- COMPOUND: "c1ccc(-c2nn3c(c2-c2ccnc4cc(OCCN5CCOCC5)ccc24)CCC3)nc1"
  TARGET OF ASSAY: "P12-Ichikawa"
  cell viability, %: 106

INPUT: Given `COc1ccc(CCC(=O)Nc2nc3ccc(Cl)cc3s2)cc1OC` , state its recorded cell viability.
OUTPUT: 108

INPUT: Given `CC1(C)OC/2=C(\[C@H](NCC3=CC=CC=C3)[C@@H]1O)C(=O)C4=CC=CC=C4C2=O` , state its recorded cell viability.
OUTPUT: 88.3

INPUT: Given `O=C(NC1CC1)c1cccc(-c2ccc3c(NC(=O)C4CC4)n[nH]c3c2)c1` , state its recorded cell viability.
OUTPUT: 113

INPUT: Given `c1cc(OCCN2CCCCC2)cc(-c2n[nH]c3ccc(-c4nc[nH]n4)cc23)c1` , state its recorded cell viability.
OUTPUT: 132

INPUT: Given `CCC(=O)O[C@@]1([C@H](C)C[C@H]2[C@@H]3C[C@H](F)\C4=C\C(=O)\C=C/[C@]4(C)[C@@]3(F)[C@@H](O)C[C@]12C)C(=O)SCF` , state its recorded cell viability.
OUTPUT: 58.9

INPUT: Given `N/C(=N\C(=O)c1nc(Cl)c(N)nc1N)NCc1ccccc1` , state its recorded cell viability.
OUTPUT: 95.1

INPUT: Given CN1[C@@H]2CC(O)C[C@H]1[C@@H]1O[C@@H]12 (some centres undefined) , state its recorded cell viability.
OUTPUT: 125

INPUT: Given `CC(C)[C@@H](N(CCCN)C(=O)C1=CC=C(C)C=C1)C/2=C(\CC3=CC=CC=C3)C(=O)C4=C(O2)C=C(Cl)C=C4` , state its recorded cell viability.
OUTPUT: 17.7

INPUT: Given `CN(C)[C@H]\1[C@@H]2[C@@H](O)[C@@H]\3C(=C)C4=C(C(=CC=C4)O)C(=O)C3=C(\O)[C@@]2(O)C(=O)\C(=C1O)C(N)=O` , state its recorded cell viability.
OUTPUT: 125

INPUT: Given `CNC(=O)c1c(F)cccc1Nc1nc(Nc2cc3c(cc2OC)CCN3C(=O)CN(C)C)nc2[nH]ccc12` , state its recorded cell viability.
OUTPUT: 110

INPUT: Given `CCCn1c(=O)c2[nH]c(C34CC5CC3C[C@@H](C5)C4)nc2n(CCC)c1=O` , state its recorded cell viability.
OUTPUT: 80.3

INPUT: Given CN1C(=O)COc2c(C(=O)NC3CN4CCC3CC4)cc(Cl)cc21 (centres undefined) , state its recorded cell viability.
OUTPUT: 86.1

INPUT: Given O=P(O)(O)C(O)(Cc1cccnc1)P(=O)(O)[O][Na] (centres undefined) , state its recorded cell viability.
OUTPUT: 107

INPUT: Given `C[C@@H]1CN(CC(=O)N2CC(C)(C)c3ncc(Cc4ccc(F)cc4)cc32)[C@@H](CN2CCOC[C@H]2C)CN1` , state its recorded cell viability.
OUTPUT: 128

###

System: P12-Ichikawa
Experiment: cell viability relative to DMSO control; higher = less cytotoxic
Conditions: RPMI 5 mM glucose + 10% FBS; 48 h; 0.000781 µM
MEASURED QUANTITY: cell viability (%)
API: value field is a number in %; no unit string.

See these solved cases before continuing.
- MOLECULE: "CC(C)(O)CNc1nc(Nc2ccnc(C(F)(F)F)c2)nc(-c2cccc(C(F)(F)F)n2)n1"
  RECORDED VALUE: 103
- MOLECULE: "Cl.Cl.Fc1ccc(C(OCCN2CCN(CCCc3ccccc3)CC2)c2ccc(F)cc2)cc1"
  RECORDED VALUE: 114
- MOLECULE: "CC(C)(C)C1=NC2=C([NH]1)C3=CC=C(F)C=C3C4=C2\\C=C/NC4=O"
  RECORDED VALUE: 118
- MOLECULE: "Nc1ccc([S+](=O)([O-])Nc2ccccn2)cc1"
  RECORDED VALUE: 105
- MOLECULE: "CCOc1cc2c(c(F)c1OCC)C(=N)N(CC(=O)c1cc(N3CCOCC3)c(OC)c(C(C)(C)C)c1)C2"
  RECORDED VALUE: 110
- MOLECULE: "Cn1c(=O)c2c(ncn2CC(O)CO)n(C)c1=O (stereo not given)"
  RECORDED VALUE: 109
- MOLECULE: "C[Se]CCC(N)C(=O)O (stereo not given)"
  RECORDED VALUE: 77.1
- MOLECULE: "CC(Oc1ccc(O)cc1)(P(=O)(O)O)P(=O)(O)O"
  RECORDED VALUE: 92.5

INPUT: Given `CCC(CC)[C@H](NC(C)=O)[C@@H]1[C@H](O)[C@@H](C(=O)O)C[C@H]1NC(=N)N` , state its recorded cell viability.
OUTPUT: 85.2

INPUT: Given `COc1ccc2cccc(CCNC(C)=O)c2c1` , state its recorded cell viability.
OUTPUT: 98.3
